B1: HDV Ribozyme (parent)
chain: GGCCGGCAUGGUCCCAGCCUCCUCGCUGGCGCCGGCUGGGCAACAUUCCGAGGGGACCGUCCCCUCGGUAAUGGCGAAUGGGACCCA

- Variants of: B1
- Protocol Summary: self-cleavage, relative activity (ratio to wild type); higher = more cleavage; co-transcriptional
Everything with self-cleavage lower than 0.4 is Not satisfied; everything else, including exactly 0.4, is Satisfied.

# Residue Sequence, Label Class
measured = [
    ("GGCCGGCAUGGUCCCAGCCUCCUCUCUGGCGCCGGCUGGGCAACAUUCCGAGGGGACCGUCCCCUCGGUAAUGGCGAGUGGGACCCA [G25U A78G]", "Not satisfied"),
    ("GGCCGGCAUGGUCCCAGCCCCCUCGCUGGCGCCGGCUGGGCAACAUUCCGAGGGGACCAUCCCCUCGGUAAUGGCGAAUGGGACCCA [U20C G59A]", "Not satisfied"),
    ("GGCCGGCAUGGUCCCGGCCUCCUCGCUGGCGCCGGCUGGGCAACAUUCCGAGGGGACCGUCCCCUCGGUAAUGGCGAAUGGGCCCCA [A16G A83C]", "Satisfied"),
    ("GGCCUGCAUGGUCCCAGCCUCCUCGCUGGCGCCGGCUGGGCAACAUUCCGAGGGGACCGUCCCGUCGGUAAUGGCGAAUGGGACCCA [G5U C64G]", "Not satisfied"),
    ("GGCCGGCAUGGUCCCAGCUUCCUCGCUGGCGCCGGCUGGGCAACAUUCCGAGUGGACCGUCCCCUCGGUAAUGGCGAAUGGGACCCA [C19U G53U]", "Not satisfied"),
    ("GGCUGGCAUGUUCCCAGCCUCCUCGCUGGCGCCGGCUGGGCAACAUUCCGAGGGGACCGUCCCCUCGGUAAUGGCGAAUGGGACCCA [C4U G11U]", "Not satisfied"),
    ("GGCCGGCAUGGUACCAGCCUCCUCGCUGGCGCCGGCUGGGCAACAUUCCGACGGGACCGUCCCCUCGGUAAUGGCGAAUGGGACCCA [C13A G52C]", "Not satisfied"),
    ("GGCCGGCAUGGUUCCAGCCUCCUCGCUGGCGCCGGCUGGGCAACAGUCCGAGGGGACCGUCCCCUCGGUAAUGGCGAAUGGGACCCA [C13U U46G]", "Not satisfied"),
    ("GGCCGGCAUGGUCCCAGCCUCCUCGCUGGCGCCGGCUGGGCAACAUUCCGAGGGGACCGUCCCCUUGGUCAUGGCGAAUGGGACCCA [C66U A70C]", "Satisfied"),
    ("CGCCGGCAUGGUCCCAGCCUCCUCGCUGGCGCCGGCUGGGCAACAUUCCGAGGGGACCGUCCCCUCGGUAAUGGCGAAUGAGACCCA [G1C G81A]", "Not satisfied"),
    ("GGCCGGCAUGGUCCCAGCCUCCUCGCUGGCGCCGGCUGGGCAACAUUCCGAGGGGACCGUCCCAUCGGUAAUGGCGGAUGGGACCCA [C64A A77G]", "Satisfied"),
    ("GGCCGGCAUGGUCCCAGCCUCCUCGCUGGCGCCGGCUGGGCUACAUUGCGAGGGGACCGUCCCCUCGGUAAUGGCGAAUGGGACCCA [A42U C48G]", "Satisfied"),
    ("GGCCGGCAUGGUCCCAGCCUCCUCGCUGGCGCCGGCUGGGCAACCUUCCGAGGGGACCGUCCCCUCGGUAAUGGCGAAUGGGACGCA [A45C C85G]", "Satisfied"),
    ("GGCCGGCAUGGUCCCAGCCUCCUCGCUGGCGCCCGCGGGGCAACAUUCCGAGGGGACCGUCCCCUCGGUAAUGGCGAAUGGGACCCA [G34C U37G]", "Not satisfied"),
    ("GGCCGGCAUGGUCCUAGCCUCCUCGCUGGCGCCGGCUGGGCAACAUUCCGAGGGGACCGUCCCCUCGGUAAUGGCGAAUGGAACCCA [C15U G82A]", "Not satisfied"),
    ("GGCCGGCAUGGUCCCAGCCUCCUCGCUGGCGCCGGCUGGGCAACAUUCCGGGGGGCCCGUCCCCUCGGUAAUGGCGAAUGGGACCCA [A51G A56C]", "Satisfied"),
    ("GGCCGGCGUGGUCCCAGCCUCCUCGGUGGCGCCGGCUGGGCAACAUUCCGAGGGGACCGUCCCCUCGGUAAUGGCGAAUGGGACCCA [A8G C26G]", "Satisfied"),
    ("GGCCGGCGUGGUCCCAGCCUCCUCGCUGGCGCCGGCUGGGCAACAUUCCGGGGGGACCGUCCCCUCGGUAAUGGCGAAUGGGACCCA [A8G A51G]", "Satisfied"),
    ("GGCCGGCAUGGUCCCAGCCUGCUCGCUGGCGCCGGCUGGGCAACAUUCCGAGGGGACCGUCCCCUCGGUGAUGGCGAAUGGGACCCA [C21G A70G]", "Not satisfied"),
    ("GGCCGGCAUGGUCCCAGCCUCCUCGCUGGCGCCGGCAGGGCAACAUUCCGAGGGGACCGUCCCCUCGGUACUGGCGAAUGGGACCCA [U37A A71C]", "Not satisfied"),
    ("GGCCGGCAUGGUCCCAGGCUCCUCGCUGGUGCCGGCUGGGCAACAUUCCGAGGGGACCGUCCCCUCGGUAAUGGCGAAUGGGACCCA [C18G C30U]", "Not satisfied"),
    ("GGCCGGCAUGGUCCCAGCCUCCUCGCUGGGGCCGGCUGGGCAACAUUCCGAGGGUACCGUCCCCUCGGUAAUGGCGAAUGGGACCCA [C30G G55U]", "Not satisfied"),
    ("GGCCGGCAUGGUCCCAGCCUCCGCGCUGGCGCCGGCUGGGCAACAUUCCGAGGGGACCGUCCCCUCGGUCAUGGCGAAUGGGACCCA [U23G A70C]", "Satisfied"),
    ("GGCCGGCAUGGUCCUAGCCUCCUCGCUGGCGCCGGCUGGGCAACAUUCCGAGGGGGCCGUCCCCUCGGUAAUGGCGAAUGGGACCCA [C15U A56G]", "Satisfied"),
    ("GGCCGGCAUGGUCCCAGCCUCCUCCCUGGCGCCGGCUGGGCAACAUUCCGAGGGGACCGUCCCCUCGGUAAUGGCGAUUGGGACCCA [G25C A78U]", "Not satisfied"),
    ("GGCCGGCAUGGUCCCAGCCUCCUCGCUGGCGCCGGCUGGGCAACAUUCCGAGGGGCCCGUCCGCUCGGUAAUGGCGAAUGGGACCCA [A56C C63G]", "Satisfied"),
    ("GGCCGGCAUGGUCCCAGCCUCCUCGCUGGCGCCGGCUGGGCAACAUUCCGAGGGGACCGUCCCCUCGUUAAUGGCGAAUGGGAUCCA [G68U C84U]", "Satisfied"),
    ("GGCCGGCAUGGUCCCAGCCUCCUCGCUGGCGCCGGCUGGGCAACAUUCCGAGGGGACCGUGACCUCGGUAAUGGCGAAUGGGACCCA [C61G C62A]", "Satisfied"),
    ("GGCCGGCAUGGUCCAAGCCUCCUCGCUGGCGCCGGCUGGGCAACAUUCCGAGGGGAGCGUCCCCUCGGUAAUGGCGAAUGGGACCCA [C15A C57G]", "Satisfied"),
    ("GGCCGGCAUGGUCCCAGCCUCCUCGCUGGCGCCGGCUGGGCAACAUUCCGAGGGGACCGUCCCCUCGGUAAUGGCGAAAGGGAGCCA [U79A C84G]", "Not satisfied"),
    ("GGCCGGCAUGGUCCCAGCCUGCUCGCUGGCGCCGGCUGGGCAACAUUCCGAGGGGACCGUCCCCUCGGUAAUGUCGAAUGGGACCCA [C21G G74U]", "Not satisfied"),
    ("GGCCGGCAUGGUCCCAGCCUCCUCGCUGGCGCCGGCUGGGCGACAUUCCGAGGGGAGCGUCCCCUCGGUAAUGGCGAAUGGGACCCA [A42G C57G]", "Satisfied"),
    ("GGCCGGUAUGGUCCCAGCCUCCUCGCUGGCGCCGGCUGGGCAACAUUCCGAGGGGACCAUCCCCUCGGUAAUGGCGAAUGGGACCCA [C7U G59A]", "Satisfied"),
    ("GGCCGGCAUGGUCCCAACAUCCUCGCUGGCGCCGGCUGGGCAACAUUCCGAGGGGACCGUCCCCUCGGUAAUGGCGAAUGGGACCCA [G17A C19A]", "Not satisfied"),
    ("GGCCGACAUGGUCCCAGCCUCCUCGCUGGCGCCGCCUGGGCAACAUUCCGAGGGGACCGUCCCCUCGGUAAUGGCGAAUGGGACCCA [G6A G35C]", "Not satisfied"),
    ("GGCCGGCAUGGUCCCAGCCUCCUCGCUGGCGCCGUCUGGGCAACCUUCCGAGGGGACCGUCCCCUCGGUAAUGGCGAAUGGGACCCA [G35U A45C]", "Not satisfied"),
    ("GGCCGGCAUGGUCCCAGCCUCCUCGCUGGCGCCGGCUGGGCAACAUUCCGAGGGGACCGUCCCCUCGGUACUGGCGAAUAGGACCCA [A71C G80A]", "Not satisfied"),
    ("GGCCCGCAUGGUCCCAGCCUCCUCGCUGGCGCCGGCUGGGCAACAUUCCGAGGGGACCGUCCCCACGGUAAUGGCGAAUGGGACCCA [G5C U65A]", "Not satisfied"),
    ("GGCAGGCAUGGUCCCAGCCUCCUCGCUGGCGCCGGCUGGGCAACAUUCCGAGGGGACCGUCCCCUUGGUAAUGGCGAAUGGGACCCA [C4A C66U]", "Not satisfied"),
    ("GGCCGGCAUGGUCCCAGCCUCCUCGCUGGCGCCGGCUGCGCAACAUUCCGAGGGGACCGUCGCCUCGGUAAUGGCGAAUGGGACCCA [G39C C62G]", "Not satisfied"),
    ("GGACGGCAUGGUCCCAGCCUCCUCGCUGGCGCCGGCUGGGCAACAUUCCGAGGGGACCGUCCCCUCGGUAAUGGCGAACGGGACCCA [C3A U79C]", "Not satisfied"),
    ("GGCCGGCAUGGUCCAAGCCUCCUCGCUGGCGCCGGCUGGGCAACAUUCCGAGGGGAUCGUCCCCUCGGUAAUGGCGAAUGGGACCCA [C15A C57U]", "Satisfied"),
    ("AGCCGGCAUGGUCCCAGCCUCCUCGCUGGCGCCGGCUGGGCAACAUUCCGAGGGGACCGUCCCCUCGGUAAUGGCGAAUGCGACCCA [G1A G81C]", "Not satisfied"),
    ("GGCCCGCAUGGUCCCAGCCUCCUCGCUGGCGCCGGCUGGGCAACAUUCCGAGGGGACCGUCCCCUCGGUAAUGGCGAAUGGGACUCA [G5C C85U]", "Not satisfied"),
    ("GGCCGGCAUGGUCCCAGCCUCCUCGCUGGCGCCGGCUGGGCAACAUUCCGAGGGGACCGUCCUCUGGGUAAUGGCGAAUGGGACCCA [C63U C66G]", "Satisfied"),
]
